The reader will find reported control value (Test 2) values listed item by item below.
test system: Pseudoperonospora cubensis; experiment: Test 2: control effect against cucumber downy mildew; format: in vivo; settings: control value vs untreated section

compound: CS(=O)(=O)Oc1ccc([N+](=O)[O-])c2c1COC(c1csc(C3CCN(C(=O)Cn4nc(C(F)(F)F)cc4C(F)(F)F)CC3)n1)OC2 (stereo not shown)
control value (Test 2): 100
--
compound: CS(=O)(=O)Oc1ccc2c(c1)COC(c1csc(C3CCN(C(=O)Cc4cc(Cl)ccc4Cl)CC3)n1)OC2 (stereo not shown)
control value (Test 2): 0
--
compound: COc1ccc(OS(C)(=O)=O)c2c1COC(c1csc(C3CCN(C(=O)Cc4cc(Cl)ccc4Cl)CC3)n1)OC2 (stereo not shown)
control value (Test 2): 100
--
compound: O=C(Cn1nc(C(F)F)cc1C(F)F)N1CCC(c2nc(C3OCc4cccc(-c5ccccc5)c4CO3)cs2)CC1 (stereo not shown)
control value (Test 2): 100
--
compound: CCCCS(=O)(=O)Oc1cccc2c1COC(c1csc(C3CCN(C(=O)Cn4nc(C(F)F)cc4C(F)F)CC3)n1)OC2 (stereo not shown)
control value (Test 2): 100
--
compound: Cc1cc(C(F)(F)F)nn1CC(=O)N1CCC(c2nc(C3OCc4cccc(OS(=O)(=O)CCC(F)(F)F)c4CO3)cs2)CC1 (stereo not shown)
control value (Test 2): 100
--
compound: CS(=O)(=O)Oc1cccc2c1COC(c1csc(C3CCN(C(=O)CON=CC(F)(F)F)CC3)n1)OC2 (stereo not shown)
control value (Test 2): 100

* * *

tested on: Phytophthora infestans; assay: whole plant or invertebrate; type: in vivo; details: Phytophthora infestans, in Solanum lycopersicum, 96 h, read-out: control value (Test 1)

compound: Cc1ccc(C)c(CC(=O)N2CCC(c3nc(C4OCc5c(OS(C)(=O)=O)cc(C)c(C)c5CO4)cs3)CC2)c1 (stereo not shown)
pest or weed control at 4 µg/mL / %: 0
//
compound: CS(=O)(=O)Oc1ccc(I)c2c1COC(c1csc(C3CCN(C(=O)Cn4nc(C(F)(F)F)cc4C(F)(F)F)CC3)n1)OC2 (stereo not shown)
pest or weed control at 4 µg/mL / %: 100
//
compound: CS(=O)(=O)Oc1cccc2c1COC(c1csc(C3CCN(C(=O)Cn4nc(C(Cl)Cl)cc4C(Cl)Cl)CC3)n1)OC2 (stereo not shown)
pest or weed control at 4 µg/mL / %: 100
//
compound: Cc1cc(C(F)(F)F)nn1CC(=O)N1CCC(c2nc(C3OCc4cccc(Br)c4CO3)cs2)CC1 (stereo not shown)
pest or weed control at 4 µg/mL / %: 100
//
compound: Cc1cc(C(F)(F)F)nn1CC(=O)N1CCC(c2nc(C3OCc4cccc(C=NO)c4CO3)cs2)CC1 (stereo not shown)
pest or weed control at 4 µg/mL / %: 100
//
compound: Cc1ccc(C)c(CC(=O)N2CCC(c3nc(C4OCc5ccc(F)cc5CO4)cs3)CC2)c1 (stereo not shown)
pest or weed control at 4 µg/mL / %: 80
//
compound: CS(=O)(=O)Oc1c(F)ccc2c1COC(c1csc(C3CCN(C(=O)Cc4cc(Cl)ccc4Cl)CC3)n1)OC2 (stereo not shown)
pest or weed control at 4 µg/mL / %: 100
